Measured LD50, listed per entry for reference.
Experiment: LD50 mouse, os
Settings: in vivo, po

Compound | LD50
CCOC(=O)c1cc(=O)c2c(OCC(O)CSCC)cccc2o1 (stereo not drawn) | > 1000 mg/kg
O=C(O)c1ccc2oc3ccc(OCCO)cc3c(=O)c2c1 [product A, reference compound] | ~1000 mg/kg
CCCSCC(O)COc1cccc2oc(C(=O)OCC)cc(=O)c12 (stereo not drawn) | > 1000 mg/kg
